- Test system: NCI-H460 lung
- assayProcedure: NCI-60 one-dose screen, 48 h (100 = growth as untreated, 0 = no growth, -100 = all killed)
- condition: 10 µM unless noted
This is part of a sample that, as a whole, favours compounds with a hit. Of some 83,000 tested, about 20% had one in any assay.
In plain terms, low growth, meaning strictly below 30%, gives 1.0, and everything else gives 0.0.

[in] Problem: For the compound CC[C@H](C)[C@@H]([C@@H](CC(=O)N1CCC[C@H]1[C@H](OC)[C@@H](C)C(=O)N[C@H](C)[C@@H](O)c1ccccc1)OC)N(C)C(=O)[C@@H](NC(=O)[C@@H](NC)C(C)C)C(C)C , is growth under 30%?
[out] 1.0

[in] Please indicate whether the reported growth of CN1CCC(c2c[nH]c3ccccc23)C1 (stereo not given) is strictly below 30%.
[out] 0.0

[in] Quick check: does CCCCCCCC(=O)OCC(=O)[C@]1(O)Cc2c(O)c3c(c(O)c2[C@@H](OC2CC(N)C(O)C(C)O2)C1)C(=O)c1c(OC)cccc1C3=O (stereo not given in full) have growth under 30%?
[out] 1.0

[in] Is it true that growth reported for CCC1CC(O)c2c(O)c3c(c(O)c2C1O)C(=O)c1cccc(O)c1C3=O (stereo not given) (tested in a mixture with another compound) is less than 30%?
[out] 1.0

[in] Quick check: growth of CO[C@H](C(=O)O)[C@@H]1Cc2cc3cc(OC4CC(OC5CC(O)C(O)C(C)O5)C(O)C(C)O4)c(C)c(O)c3c(O)c2C(=O)[C@H]1OC1CC(OC2CC(OC3CC(C)(O)C(O)C(C)O3)C(O)C(C)O2)C(O)C(C)O1 (stereo not given in full) under 30%?
[out] 1.0

[in] Quick check: growth of CNC12C3C4C1C1C2C3C41C(=O)N[C@H](C(=O)N(C)[C@H](C[C@@H](OC(C)=O)c1nc(C(=O)N[C@@H](Cc2ccccc2)C[C@H](C)C(=O)OC)cs1)C(C)C)C1CC1 (stereo not given in full) under 30%?
[out] 1.0

Cited source: PubChem BioAssay (NCI)
